B1: POU domain, class 2, transcription factor 2, residues 200 to 269; numbered along this chain, P09086 (parent)
chain: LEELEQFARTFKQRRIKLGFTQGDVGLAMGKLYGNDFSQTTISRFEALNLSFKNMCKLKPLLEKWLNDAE

variants of: B1; test: abundance fitness (aPCA) (normalised: wild type 0, dead -1); higher = more abundant; growth selection in yeast, the domain comes from the species named; settings: Homo sapiens
measure: abundance fitness
Give bare numbers.

In the examples that follow, each entry is paired with its recorded abundance fitness.
G34H    -0.018
A28M    -0.047
F20Y    -0.111
Y33V    -0.06
E46T    -0.87
L61Y    -0.082

Please supply abundance fitness for each of the following items, keeping them in order.
1. E70P
2. E70C
3. F37W
4. I16S
5. S51M
6. T10C
7. Q13S

-- reply
1: -0.253; 2: -0.092; 3: -0.012; 4: -0.071; 5: -0.317; 6: -0.084; 7: -0.006

Please supply abundance fitness for each of the following items, keeping them in order.
1. I16M
2. Q39C

-- reply
-0.06
-0.077

Please supply abundance fitness for each of the following items, keeping them in order.
1. G23K
2. K17E
3. N54H
4. F11N
5. A8K
6. I16D
7. M55N

-- reply
1. 0.029
2. -0.082
3. 0.091
4. -1.1
5. -0.856
6. -0.133
7. -0.463
